These entries and their values trace back to patent US4447439A.

test: Acute lethal toxicity; parameters: species or system male and female Jcl:SD strain rats; conditions: rat, in vivo, po, female rats, single oral, 7 days
observation-type: LD50 at 168 h (mg/kg)
Numbers only, in mg/kg.

Exercise: Look up LD50 at 168 h: CC[N+]1(C)CCC(OC(=O)C(c2noc3ccccc23)N2CCCCCC2)CC1.[I-] (stereo not shown) [Example 17(i)]
Key: 6320

* * *

experiment: Acute lethal toxicity; set-up: species or system male and female Jcl:SD strain rats; settings: rat, in vivo, po, male rats, single oral, 7 days
observation-type: LD50 at 168 h (mg/kg)
Give bare numbers, in mg/kg.

Exercise: Look up LD50 at 168 h: CC[N+]1(C)CCC(OC(=O)C(c2noc3ccccc23)N2CCCCCC2)CC1.[I-] (stereo not shown)
Key: 5430
